assay: in vivo; settings: C57Bl/6, mouse, po, 10 mg/kg, Tumor Tmax

- CHEMICAL_STRING: "CNC(=O)c1cc(Oc2ccc(NC(=O)Nc3ccc(Cl)c(C(F)(F)F)c3)c(F)c2)ccn1"
  Tmax / h: 7

###

assay: in vivo; conditions: C57Bl/6, mouse, po, 20 mg/kg, Plasma AUC

- COMPOUND: "CNC(=O)c1cc(Oc2ccc(NC(=O)Nc3ccc(Cl)c(C(F)(F)F)c3)c(F)c2)ccn1 [regorafenib]"
  AUC: "5.75 µg·h/mL"

###

assay: in vivo; details: C57Bl/6, mouse, po, 10 mg/kg, Plasma Tmax

- CHEMICAL_STRING: "CNC(=O)c1cc(Oc2ccc(NC(=O)Nc3ccc(Cl)c(C(F)(F)F)c3)c(F)c2)ccn1"
  VALUE_UNIT: "h"
  Tmax: 1

###

test: in vivo; settings: C57Bl/6, mouse, po, 20 mg/kg, Plasma Cmax

- COMPOUND: "CNC(=O)c1cc(Oc2ccc(NC(=O)Nc3ccc(Cl)c(C(F)(F)F)c3)c(F)c2)ccn1 [regorafenib]"
  VALUE_UNIT: "ng/mL"
  Cmax: 485

Entry source: paper PMC7689089
